Test system: LOX IMVI melanoma
Assay: NCI tumour cell line growth inhibition, 48 h
Kindly supply the reported TGI values for the records listed here.

For COc1ccc2c(c1)C(=O)c1c-2n(CCCCl)c(=O)c2cc(OC)c(OC)cc12 the compound record lists TGI as > 61.9 µM

For COC(=O)c1cc(-c2ccc(OC)c(OC)c2)oc1-c1ccc(OC)c(OC)c1 the compound record lists TGI as > 100 µM

For COc1ccc(/C=C(\C#N)c2nc3ccccc3c(=O)[nH]2)cc1 the compound record lists TGI as > 100 µM

For NS(=O)(=O)N(c1cc(C(F)(F)F)cc(C(F)(F)F)c1)C1CCN(Cc2ccc(F)cc2)CC1 the compound record lists TGI as 13.7 µM

For CC(C)OC(=O)C1=C2c3ncccc3C(=O)N2[C@@H](Cl)[C@@H](Cl)[C@@H]1Cl the compound record lists TGI as > 100 µM

For COc1cccc(C2c3cc4c(cc3OC(NNc3ccccc3)C2C)OCO4)c1O (stereo not drawn) the compound record lists TGI as 27.5 µM

For CC(C)(/C=N\O)NO the compound record lists TGI as > 10 µM

For CC(=O)N1CCc2[nH]c3ccccc3c2CC1 the compound record lists TGI as > 100 µM

For CC(C)C1=C(O)C2=C(C(=O)C1=O)C1(C)CCCC(C)(C)C1CC2O (stereo not drawn) the compound record lists TGI as > 100 µM

For CC(=O)OCC1OC(Sc2nc(-c3ccc(Cl)cc3)c(C#N)c(=O)n2C2OC(COC(C)=O)C(OC(C)=O)C(OC(C)=O)C2OC(C)=O)C(OC(C)=O)C(OC(C)=O)C1OC(C)=O (stereo not drawn) the compound record lists TGI as > 100 µM

For CCCCNc1nc2nc[nH]c2c(=O)[nH]1 the compound record lists TGI as > 100 µM

For CCC(Cc1cnc2nc(N)nc(N)c2n1)c1ccc(C(=O)NC(CCC(=O)O)C(=O)O)cc1 (stereo not drawn) the compound record lists TGI as > 100 µM

For CCOc1ccccc1NC(=O)CC1Sc2ccccc2NC1=O (stereo not drawn) the compound record lists TGI as > 100 µM

----------
Kindly supply the reported TGI values for the records listed here.
Test system: UO-31 renal
Assay: NCI tumour cell line growth inhibition, 48 h

I looked up COc1ccccc1N1C(=O)/C(=C\c2cc(OC)c(OC)c(OC)c2)SC1c1ccccc1 (stereo not drawn) and its TGI for UO-31 renal was > 100 µM

I looked up CC(C)(/C=N\O)NO and its TGI for UO-31 renal was > 10 µM

I looked up O=S1CCN(Cc2ccc(-c3ccc4ncnc(Nc5ccc(OCc6ccccc6)c(Cl)c5)c4c3)o2)CC1 and its TGI for UO-31 renal was > 25 µM

I looked up N#Cc1c(-c2ccccc2)cc(-c2ccccc2)n(CC(=O)NO)c1=O and its TGI for UO-31 renal was 9.75 µM

I looked up OCc1nnn2c1CCC2 and its TGI for UO-31 renal was > 100 µM

I looked up CC(C)CC(C(N)=O)C(=O)NC(Cc1ccccc1)NC(=O)CNC(=O)C(C)NC(=O)C(N)Cc1ccc(O)cc1 (stereo not drawn) and its TGI for UO-31 renal was > 100 µM

I looked up Cn1ncc2c(Sc3ccc(Cl)cc3)ncnc21 and its TGI for UO-31 renal was > 100 µM

I looked up COc1cc2c(cc1OC)C1Cc3sccc3CN1CC2 (stereo not drawn) and its TGI for UO-31 renal was > 100 µM

I looked up COc1ccc2c(c1)[n+]([O-])c(-c1c(Cl)cccc1Cl)c(N)[n+]2[O-] and its TGI for UO-31 renal was > 100 µM

I looked up O=C1C=CC(=O)c2c(O)c(NCCCN3CCOCC3)c(Cl)c(O)c21 and its TGI for UO-31 renal was 3.64 µM

I looked up CCC(Cc1cnc2nc(N)nc(N)c2n1)c1ccc(C(=O)NC(CCC(=O)O)C(=O)O)cc1 (stereo not drawn) and its TGI for UO-31 renal was > 100 µM

I looked up Nc1ncnc2c1ncn2C1OC(CSCc2ccc(Cl)cc2)C(O)C1O (stereo not drawn) and its TGI for UO-31 renal was 56 µM

I looked up COc1cc2oc3c(c(=O)c2c(O)c1/C=C/C(C)C)CCC(C)(C)Oc1cc(O)ccc1-3 and its TGI for UO-31 renal was 25.8 µM

I looked up C/C=C/[C@@H]1[C@H]2C(=O)[C@]3(Cl)[C@@H](/C=C/C)[C@@H]3C(=O)[C@@]12Cl and its TGI for UO-31 renal was > 100 µM

I looked up CCCc1c(Cl)nc(Cl)nc1Cl and its TGI for UO-31 renal was > 55.4 µM

I looked up COC(=O)c1cc(-c2ccc(OC)c(OC)c2)oc1-c1ccc(OC)c(OC)c1 and its TGI for UO-31 renal was > 100 µM

I looked up O=c1[nH]cnc2c(COCCCO)c[nH]c12 and its TGI for UO-31 renal was > 100 µM

I looked up CC(=O)CC1(OC(=O)C2C(C=C(C)C)C2(C)C)C(=O)Nc2ccccc21 (stereo not drawn) and its TGI for UO-31 renal was > 100 µM

I looked up CC(C)CCNc1ncnc2[nH]ncc12 and its TGI for UO-31 renal was > 100 µM

I looked up Cn1c(=O)c2nc(N3CCOCC3)cnc2n(C)c1=O and its TGI for UO-31 renal was > 100 µM

I looked up O=C(NCCc1[nH]nc2c1C(=O)C=C(Nc1ccccc1)C2=O)OCc1ccccc1 and its TGI for UO-31 renal was > 100 µM

I looked up O=C(N=Nc1c(O)[nH]c2c(Cl)cc(Cl)cc12)c1ccccc1O and its TGI for UO-31 renal was 24.3 µM

I looked up Cc1ccccc1-n1c(=O)sc2c(=O)n(-c3ccccc3)c(=S)[nH]c21 and its TGI for UO-31 renal was > 100 µM

I looked up COc1ccc(/C=C(\C#N)c2ccc(OC)cc2)cc1 and its TGI for UO-31 renal was > 100 µM

I looked up O=C1NC(N/N=C/c2c[nH]c3ccccc23)=N/C1=C\c1cccs1 and its TGI for UO-31 renal was > 100 µM

I looked up CCC/C=C/C=C/C(=O)OC1C(C)C2(O)C3C=C(C)C(=O)C3CC(COC(C)=O)=CC2C2C(C)(C)C12OC(=O)C(C)C (stereo not drawn) and its TGI for UO-31 renal was 29.4 µM

I looked up O=C(O)C1[C@@H](C(=O)O)C1(Br)CBr (stereo partly drawn) and its TGI for UO-31 renal was > 100 µM

I looked up O=C(O)CN1CCNCCNCC1 and its TGI for UO-31 renal was > 100 µM

I looked up NC(N)=NS(=O)(=O)c1ccc(Nc2c3ccccc3nc3c(C(=O)NNCCO)cccc23)cc1 and its TGI for UO-31 renal was > 1 µM

I looked up CCOC(=O)/C=C(\C(=O)OCC)n1ccc(=O)n(Cc2cnnn2COCCOC(C)=O)c1=O and its TGI for UO-31 renal was 30.5 µM

I looked up CC(=O)OCC1OC(n2c(-c3ccc(C)cc3)cc(-c3ccco3)c(C#N)c2=S)C(OC(C)=O)C(OC(C)=O)C1OC(C)=O (stereo not drawn) and its TGI for UO-31 renal was > 100 µM

I looked up Cc1ccc(Nc2nc3nc[nH]c3c(=O)[nH]2)cc1CO and its TGI for UO-31 renal was 29.5 µM

I looked up c1ccc(-c2cc(-c3cccs3)c(-c3cccs3)s2)cc1 and its TGI for UO-31 renal was 72.3 µM

I looked up COc1ccc2c(c1)C(=O)c1c-2n(CCCCl)c(=O)c2cc(OC)c(OC)cc12 and its TGI for UO-31 renal was > 100 µM

I looked up Oc1ccc(-c2nn3c(CCCCCCCCc4nnc5sc(-c6ccc(O)cc6)nn45)nnc3s2)cc1 and its TGI for UO-31 renal was > 100 µM

I looked up O=C1/C(=C/c2ccc(Cl)cc2)COc2ccc(O)cc21 and its TGI for UO-31 renal was 3.99 µM

I looked up COc1cc(C(=O)NO)ccc1O and its TGI for UO-31 renal was > 100 µM

I looked up Cc1cc(-c2ncc(-c3cccnc3)cc2/C=C/c2ccccc2)cnc1-c1cccnc1 and its TGI for UO-31 renal was 9.04 µM

I looked up N#CCCN(CCC#N)CCN(CCN(CCC#N)CCC#N)CCN(CCC#N)CCC#N and its TGI for UO-31 renal was > 100 µM

I looked up COC1=CC(c2ccc[nH]2)=N/C1=C\c1[nH]c(C)c(C(=O)CCCCC(=O)NCc2ccccc2)c1C and its TGI for UO-31 renal was 8.81 µM

I looked up CC(C)C1CNC2N1C(=O)C2(C)OCc1ccccc1 (stereo not drawn) and its TGI for UO-31 renal was > 100 µM

I looked up Cc1ccc(C2(c3ccc(C)cc3)SC(=C(C#N)C#N)c3ccccc32)cc1 and its TGI for UO-31 renal was > 100 µM

I looked up COc1ccc(Nc2nccc(Nc3ccc4[nH]ncc4c3)n2)cc1 and its TGI for UO-31 renal was 11.4 µM

Data provenance: PubChem BioAssay (NCI)
